Recorded viability, T/C by entry
system: 997726-040-R-J2-PDC tumor spheroids, viability; test: Anticancer human tumor 997726-040-R-J2-PDC patient-derived squamous cell lung carcinoma cell line growth inhibition [PI3K]; conditions: second compound 0.316 µM; first compound 0.01 µM; hits give low values; spheroids with HUVEC and MSC;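 further: spheroids exposed to compounds for seven days before readout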

{"Compound": "CCN1CCN(Cc2ccc(Nc3ncc(F)c(-c4cc(F)c5nc(C)n(C(C)C)c5c4)n3)nc2)CC1 + Cc1nc(NC(=O)N2CCCC2C(N)=O)sc1-c1ccnc(C(C)(C)C(F)(F)F)c1", "viability, T/C [%]": 51.8}
{"Compound": "CC(=O)c1c(C)c2cnc(Nc3ccc(N4CCNCC4)cn3)nc2n(C2CCCC2)c1=O + CC(Nc1ncnc2nc[nH]c12)c1cc2cccc(Cl)c2c(=O)n1-c1ccccc1", "viability, T/C [%]": 83.5}
{"Compound": "CC(=O)c1c(C)c2cnc(Nc3ccc(N4CCNCC4)cn3)nc2n(C2CCCC2)c1=O + Cc1nc(NC(=O)N2CCCC2C(N)=O)sc1-c1ccnc(C(C)(C)C(F)(F)F)c1", "viability, T/C [%]": 55.7}
{"Compound": "CC(C)n1nc(-c2ccc3oc(N)nc3c2)c2c(N)ncnc21 + COc1c(OCCCN2CCOCC2)ccc2c3n(c(=NC(=O)c4cnc(N)nc4)nc12)CCN3", "viability, T/C [%]": 2.91}
{"Compound": "Cn1ncnc1[C@H]1c2n[nH]c(=O)c3cc(F)cc(c23)N[C@@H]1c1ccc(F)cc1 + CC(Nc1ncnc2nc[nH]c12)c1cc2cccc(Cl)c2c(=O)n1-c1ccccc1", "viability, T/C [%]": 101}
{"Compound": "Cn1ncnc1[C@H]1c2n[nH]c(=O)c3cc(F)cc(c23)N[C@@H]1c1ccc(F)cc1 + Cc1nc(NC(=O)N2CCCC2C(N)=O)sc1-c1ccnc(C(C)(C)C(F)(F)F)c1", "viability, T/C [%]": 57.2}
{"Compound": "CCN1CCN(Cc2ccc(Nc3ncc(F)c(-c4cc(F)c5nc(C)n(C(C)C)c5c4)n3)nc2)CC1 + COc1c(OCCCN2CCOCC2)ccc2c3n(c(=NC(=O)c4cnc(N)nc4)nc12)CCN3", "viability, T/C [%]": 4.49}
{"Compound": "CC(C)n1nc(-c2ccc3oc(N)nc3c2)c2c(N)ncnc21 + Cc1nc(NC(=O)N2CCCC2C(N)=O)sc1-c1ccnc(C(C)(C)C(F)(F)F)c1", "viability, T/C [%]": 36.7}
{"Compound": "CCN1CCN(Cc2ccc(Nc3ncc(F)c(-c4cc(F)c5nc(C)n(C(C)C)c5c4)n3)nc2)CC1 + CC(Nc1ccc2c(c1)OCCn1cc(N3C(=O)OCC3C(F)F)nc1-2)C(N)=O", "viability, T/C [%]": 29.6}
{"Compound": "CC(=O)c1c(C)c2cnc(Nc3ccc(N4CCNCC4)cn3)nc2n(C2CCCC2)c1=O + CC(Nc1ccc2c(c1)OCCn1cc(N3C(=O)OCC3C(F)F)nc1-2)C(N)=O", "viability, T/C [%]": 30.1}
{"Compound": "CCN1CCN(Cc2ccc(Nc3ncc(F)c(-c4cc(F)c5nc(C)n(C(C)C)c5c4)n3)nc2)CC1 + CC(Nc1ncnc2nc[nH]c12)c1cc2cccc(Cl)c2c(=O)n1-c1ccccc1", "viability, T/C [%]": 97.1}
